These measurements were taken from ChEMBL document CHEMBL1201862.

Test system: NCI-H460
assay-text: NCI tumour cell line growth inhibition, 48 h
Calls of active or inactive are those of the source. Rule as the data show it: active = GI50 up to about 1.1 µM and inactive = higher.
Items are presented alongside their recorded GI50.

{"compound": "COc1ccc(C2=C3c4cc(OC)c(OC)cc4CCN3C(=S)SS2)cc1OC", "GI50": "> 100 µM (inactive)"}
{"compound": "O=C(O)CCC(=O)N1C/C(=C\\c2ccccc2)C(=O)/C(=C/c2ccccc2)C1", "GI50": "8.22 µM (inactive)"}
{"compound": "Nc1c(/N=N/c2ccc(-c3ccc(/N=N/c4c(O)ccc5cc(S(=O)(=O)O)cc(S(=O)(=O)O)c45)cc3)cc2)c(S(=O)(=O)O)cc2cc(S(=O)(=O)O)c(/N=N/c3ccccc3)c(O)c12", "GI50": "> 100 µM (inactive)"}
{"compound": "Brc1cccc[n+]1-c1ccc2cc(-[n+]3ccccc3Br)ccc2c1", "GI50": "30.2 µM (inactive)"}
{"compound": "OCC1NC(COC2OC(CO)C(O)C(O)C2O)C(O)C(O)C1O (stereo not given)", "GI50": "> 100 µM (inactive)"}
{"compound": "Ic1cccc(/C=C/CN2CCN(CCOC(c3ccccc3)c3ccccc3)CC2)c1", "GI50": "11.3 µM (inactive)"}
{"compound": "COc1ccc2[nH]cc(C=C3C(=O)NC(=S)NC3=O)c2c1", "GI50": "> 100 µM (inactive)"}
{"compound": "CCCCC1CC(c2cccc([N+](=O)[O-])c2)=NO1 (stereo not given)", "GI50": "75.5 µM (inactive)"}
{"compound": "C=C(C)C(=O)O[C@H]1[C@H]2[C@H](OC(=O)[C@H]2C)[C@H](O)[C@@H](C)[C@@H]2C=CC(=O)[C@]21C", "GI50": "1.82 µM (inactive)"}
{"compound": "C/C(=N\\NC(=N)N)C(CN(C)C)C(c1ccccc1)c1c(O)c2ccccc2oc1=O (stereo not given)", "GI50": "> 100 µM (inactive)"}
